Assay Method Text: in vitro
Condition Summary: African green monkey
Readout Name: CC50

Solved cases below.
CN(C)C(=O)NC(=O)c1ccsc1NC(=O)c1nc2cnccc2s1    < 25 µg/mL
COCCOC(=O)NC(=O)c1ccsc1NC(=O)c1nc2cnccc2s1    > 50 µg/mL
CCOC(=O)NC(=O)c1ccsc1NC(=O)c1cn2cc(S(C)(=O)=O)ccc2n1    25 to 50 µg/mL
CC(C)OC(=O)NC(=O)c1ccsc1NC(=O)c1nc2ccccc2o1    < 25 µg/mL
CCOC(=O)NC(=O)c1ccsc1NC(=O)c1cnc2ccccn12    25 to 50 µg/mL
CN(C)C(=O)NC(=O)c1ccsc1NC(=O)c1nc2ccccc2s1    > 50 µg/mL

Go through the list and state CC50 for each entry.
1. CCOC(=O)NC(=O)c1ccsc1NC(=O)c1ccc2c(c1)CCO2
2. O=C(NC(=O)c1cc(F)sc1NC(=O)c1nc2ccccc2s1)OCC(F)(F)F
3. CCOC(=O)NC(=O)c1ccsc1NC(=O)c1ccc2sc(C(C)C)nc2c1

### Response
1: > 50 µg/mL; 2: < 25 µg/mL; 3: > 50 µg/mL
